Documented viability, T/C across a set of compounds
test system: HSSY-II tumor spheroid viability; assay: Anticancer human tumor HSSY-II cell line growth inhibition; conditions: second compound 30 pM; first compound 10 µM; active compounds read low; spheroids with HUVEC and MSC;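 further: spheroids exposed to compounds for seven days before reading; percent of DMSO vehicle control viability so 100% = untreated level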

Known results for compounds:
INSERT INTO results (compound, observable, recorded_measurement) VALUES
  ('CC1COCCN1c1cc(-c2ccnn2C)c2ccnc(-c3ccn[nH]3)c2n1 (centres undefined) + COc1cc2c(cc1O)CCNC21CSC2c3c(OC(C)=O)c(C)c4c(c3C(COC1=O)N1C(O)C3Cc5cc(C)c(OC)c(O)c5C(C21)N3C)OCO4', 'viability, T/C', '5.25%'),
  ('CC(C)n1c(=O)n(C)c2cnc3cc(F)c(-c4ccc(OCCCN5CCCCC5)nc4)cc3c21 + COc1cc2c(cc1O)CCNC21CSC2c3c(OC(C)=O)c(C)c4c(c3C(COC1=O)N1C(O)C3Cc5cc(C)c(OC)c(O)c5C(C21)N3C)OCO4', 'viability, T/C', '71.4%'),
  ('COc1ccc([C@@H](O)c2cc(-c3ncnc4cc(N5CCOCC5)ccc34)c(F)cc2Cl)nn1 + COc1cc2c(cc1O)CCNC21CSC2c3c(OC(C)=O)c(C)c4c(c3C(COC1=O)N1C(O)C3Cc5cc(C)c(OC)c(O)c5C(C21)N3C)OCO4', 'viability, T/C', '6.65%');

// lookup viability, T/C for Cc1cc(C)c(CNC(=O)c2cc(-c3ccc(CN4CCOCC4)cc3)cc3c2cnn3C2CCCC2)c(=O)[nH]1 + COc1cc2c(cc1O)CCNC21CSC2c3c(OC(C)=O)c(C)c4c(c3C(COC1=O)N1C(O)C3Cc5cc(C)c(OC)c(O)c5C(C21)N3C)OCO4
76.6%
